The measured values listed here are drawn from ChEMBL document CHEMBL1212788.

system: Staphylococcus aureus; assay: Inhibition of lipid intermediate formation in methicillin susceptible Staphylococcus aureus RN4220 assessed as reduction in N-acetyl-D-[1-3H]glucosamine incorporation in crude assay system; type: functional
Below, each of the molecules is paired with its reported IC50 value.
# do not omit the unit; it follows the number

These recorded examples may help you get a feel for the data.
molecule | observed_measurement
C[C@H]1O[C@H](O[C@@H]2[C@@H](Oc3c4cc5cc3Oc3ccc(cc3Cl)[C@@H](O)[C@@H](N)C(=O)N[C@@H](CC(N)=O)C(=O)N[C@H]5C(=O)N[C@H]3C(=O)N[C@H](C(=O)N[C@H](C(=O)O)c5cc(O)cc(O)c5-c5cc3ccc5O)[C@H](O)c3ccc(c(Cl)c3)O4)O[C@@H](CO)[C@H](O)[C@H]2O)C[C@@](C)(N)[C@H]1O | 3900 µg/mL
CN[C@H](CC(C)C)C(=O)N[C@H]1C(=O)N[C@@H](CC(N)=O)C(=O)N[C@H]2C(=O)N[C@H]3C(=O)N[C@H](C(=O)N[C@H](C(=O)O)c4cc(O)cc(O)c4-c4cc3ccc4O)[C@H](O)c3ccc(c(Cl)c3)Oc3cc2cc(c3O[C@@H]2O[C@H](CO)[C@@H](O)[C@H](O)[C@H]2O[C@H]2C[C@](C)(N)[C@H](O)[C@H](C)O2)Oc2ccc(cc2Cl)[C@H]1O [VANCOMYCIN] | 180 µg/mL
Cc1ccc(C(=O)Nc2cccc(CN[C@]3(C)C[C@@H](O[C@@H]4[C@@H](Oc5c6cc7cc5Oc5ccc(cc5Cl)[C@@H](O)[C@@H](N)C(=O)N[C@@H](CC(N)=O)C(=O)N[C@H]7C(=O)N[C@H]5C(=O)N[C@H](C(=O)N[C@H](C(=O)O)c7cc(O)cc(O)c7-c7cc5ccc7O)[C@H](O)c5ccc(c(Cl)c5)O6)O[C@@H](CO)[C@H](O)[C@H]4O)O[C@H](C)[C@@H]3O)c2)c([N+](=O)[O-])c1OCc1ccccc1 | 140 µg/mL

Next, consider the following molecule.
Q: Fill in the blank: the reported IC50 of `CN[C@H](CC(C)C)C(=O)N[C@H]1C(=O)N[C@@H](CC(N)=O)C(=O)N[C@H]2C(=O)N[C@H]3C(=O)N[C@H](C(=O)N[C@H](C(=O)O)c4cc(O)cc(O)c4-c4cc3ccc4O)[C@H](O)c3ccc(c(Cl)c3)Oc3cc2cc(c3O[C@H]2O[C@@H](CO)[C@H](O)[C@@H](O)[C@@H]2O[C@@H]2C[C@@](C)(NCc3cccc(NC(=O)c4ccc(C)c(OCc5ccccc5)c4[N+](=O)[O-])c3)[C@@H](O)[C@@H](C)O2)Oc2ccc(cc2Cl)[C@H]1O` is ____.
A: 32 µg/mL
